- assay overview: soluble on expression in E. coli; label from the status in PepcDB or PDB records
measurement type: soluble on expression in E. coli

Observe how each entry below is paired with its result.
{"entry sequence": "VNSVTISVEGMTCNSCVWTIEQQIGKVNGVHHIKVSLEEKNATIIYDPKLQTPKTLQEAIDDMGFDAVIHNIEGR", "soluble on expression in E. coli": "soluble"}
{"entry sequence": "MAKYNEKKEKKRIAKERIDILFSLAERVFPYSPELAKRYVELALLVQQKAKVKIPRKWKRRYCKKCHAFLVPGINARVRLRQKRMPHIVVKCLECGHIMRYPYIKEIKKRRKEKMEYGGLVPR", "soluble on expression in E. coli": "soluble"}
{"entry sequence": "MGSSHHHHHHSSGLVPRGSAVPLCKQALEDLEKTSGHDHPDVATMLNILALVYRDQNKYKEAAHLLNDALAIREKTLGKDHPAVAATLNNLAVLYGKRGKYKEAEPLCKRALEIREKVLGKFHPDVAKQLSNLALLCQNQGKAEEVEYYYRRALEIYATRLGPDDPNVAKTKNNLASCYLKQGKYQDAETLYKEILTRAHEKEFGSVNGDNKPIWMHAEEREESKDKRRDSAPYGEYGSWYKACKVDSPTVNTTLRSLGALYRRQGKLEAAHTLEDCASRNRK", "soluble on expression in E. coli": "soluble"}
{"entry sequence": "MGSDKIHHHHHHVIRSLWISKTGLDAQQTQMDVIANNLANVSTNGFKRSRAVFEDLLYQTLRQPGAQSSQQTQLPSGLQLGTGVRPVATEHIFTQGNLQQTGNSKDVAIQGQGFFQVLRPDGSTAYTRDGSFQTDFEGQLVTSSGYHVQPAITIPPNAQSITVGRDGIVSVTTQDSTTPVQVGNLQLATFINPAGLQSVGENLYVETASSGTPNVTNPGTDGAGLLNQGYVETSNVNVVEELVNMIQTQRAYEINSKSVQTSDQMLQRLTQL", "soluble on expression in E. coli": "not soluble"}
{"entry sequence": "MEYSNFFDDLKSNIIGQYEECKAYRILCESQGYNPSEHLRSEKDITNIPFLATTLFKKSANLFLSLLRVEPDKLDKWTLSSSTSGDPSMVGRRNSDLMQIRKFVLMDDKFYDSASEYNCVFYPEPKVMREYKSVRIMDKPTESYIGNLLGIFDFSENTTFLLKSCGEGFSVDMNSFEEFLKFNNERNNHLSLRGSTLLLYNAVLELKKQGKGPYNLGSRAIVHTGGGGWDGKKGNISIGTKIERYQFVEEISEFLGIPQKNFRDTYSFTENTFPMDGHYSEKLRSYLFHVPTWGRVIIRDVKTLEPLNKPGDRGLVQVLNAYGTSSFAGASILVDDIAEIVANDSCPECKHEGMTFKIVGRVKGSEAKGCGATLDVRGKQKLEHHHHHH", "soluble on expression in E. coli": "soluble"}
{"entry sequence": "GSSSSLPLYNQQVGDCCIIRVSLDVDNGNMYKSILVTSQDKAPTVIRKAMDKHNLDEDEPEDYELLQIISEDHKLKIPENANVFYAMNSAANYDFILKKR", "soluble on expression in E. coli": "soluble"}

[ask] Sample `MVDIEALQKAIGVTSLSYDEDDDDDDENDAFYSSSHRVSHNYNQPPLPPIPTRDDMSNYSSSRNTPLVRRD` — what was its soluble on expression in E. coli?
[reply] not soluble

[ask] Please give the result for `MYMKHIENGTRIEGEYIKNKVIQYNMSILTDEVKQPMEEVSLVVKNEEGKIFGGVTGTMYFYHLHIDFLWVDESVRHDGYGSQLLHEIEGIAKEKGCRLILLDSFSFQAPEFYKKHGYREYGVVEDHPKGHSQHFFEKRL` too.
[reply] soluble
